# Condition parameters: in DMSO, 338.85 K
Reported endpoint: solubility (mole fraction)
Output spec: single numeric token, no unit.

Lab note: "O=C1C=CC(=O)N1c1cc(F)c(Br)c(F)c1" gave solubility (mole fraction) of 0.0473

###

# Condition parameters: in 1,4-dioxane, 324.45 K
Reported endpoint: solubility (mole fraction)

The compound listed as "O=C1C=CC(=O)N1c1cc(F)c(Br)c(F)c1" has a reported solubility (mole fraction) of 0.0342

###

# Condition parameters: in DMF, 337.65 K
Reported endpoint: solubility (mole fraction)
// print number alone

Record summary for "O=C1C=CC(=O)N1c1cc(F)c(Br)c(F)c1" : reported solubility (mole fraction) = 0.0643

###

# Condition parameters: in toluene, 340.75 K
Reported endpoint: solubility (mole fraction)

Looking up "O=C1C=CC(=O)N1c1cc(F)c(Br)c(F)c1" , I see its solubility (mole fraction) listed as 0.0175

###

# Condition parameters: in toluene, 330.65 K
Reported endpoint: solubility (mole fraction)
// no unit, no text: just the number

Recorded result, "O=C1C=CC(=O)N1c1cc(F)c(Br)c(F)c1" , solubility (mole fraction): 0.0124

###

# Condition parameters: in DMF, 293.65 K
Reported endpoint: solubility (mole fraction)
Lab note: write the figure by itself, no unit.

The measured solubility (mole fraction) associated with "O=C1C=CC(=O)N1c1cc(F)c(Br)c(F)c1" reads 0.0228

###

# Condition parameters: in DMF, 353.35 K
Reported endpoint: solubility (mole fraction)

Item: "O=C1C=CC(=O)N1c1cc(F)c(Br)c(F)c1" | solubility (mole fraction): 0.0932

###

# Condition parameters: in toluene, 343.55 K
Reported endpoint: solubility (mole fraction)
Answer with a bare number; do not write a unit.

For "O=C1C=CC(=O)N1c1cc(F)c(Br)c(F)c1" the compound record lists solubility (mole fraction) as 0.0192

###

# Condition parameters: in toluene, 315.95 K
Reported endpoint: solubility (mole fraction)
Kindly provide the number alone.

Reported solubility (mole fraction) ( "O=C1C=CC(=O)N1c1cc(F)c(Br)c(F)c1" ) = 0.0075

###

# Condition parameters: in 1,4-dioxane, 302.05 K
Reported endpoint: solubility (mole fraction)
Simply state the number, no unit and no words.

// "O=C1C=CC(=O)N1c1cc(F)c(Br)c(F)c1" : solubility (mole fraction) value = 0.0183

###

# Condition parameters: in cyclohexanone, 324.95 K
Reported endpoint: solubility (mole fraction)
Kindly provide the number alone.

Reported solubility (mole fraction) for "O=C1C=CC(=O)N1c1cc(F)c(Br)c(F)c1" was 0.037

###

# Condition parameters: in 2-butanone, 331.95 K
Reported endpoint: solubility (mole fraction)
Simply state the number, no unit and no words.

Notebook: "O=C1C=CC(=O)N1c1cc(F)c(Br)c(F)c1" , solubility (mole fraction) read as 0.0296

###

# Condition parameters: in cyclohexanone, 351.65 K
Reported endpoint: solubility (mole fraction)
Please give the numeric answer without any surrounding text.

Sample "O=C1C=CC(=O)N1c1cc(F)c(Br)c(F)c1" ; solubility (mole fraction) observed: 0.0751

###

# Condition parameters: in DMF, 325.25 K
Reported endpoint: solubility (mole fraction)

Reported solubility (mole fraction) of "O=C1C=CC(=O)N1c1cc(F)c(Br)c(F)c1" : 0.0477

###

# Condition parameters: in 2-butanone, 303.5 K
Reported endpoint: solubility (mole fraction)
Quick one: just the number, no unit, thanks!

Lookup result for "O=C1C=CC(=O)N1c1cc(F)c(Br)c(F)c1" ; measured solubility (mole fraction): 0.0128

###

# Condition parameters: in toluene, 321.05 K
Reported endpoint: solubility (mole fraction)

The recorded solubility (mole fraction) for entry "O=C1C=CC(=O)N1c1cc(F)c(Br)c(F)c1" equals 0.0089

###

# Condition parameters: in cyclohexanone, 337.35 K
Reported endpoint: solubility (mole fraction)
Answer using only a numeral; do not append any unit.

So, "O=C1C=CC(=O)N1c1cc(F)c(Br)c(F)c1" ? Its solubility (mole fraction) was 0.0515

###

# Condition parameters: in 1,4-dioxane, 321.65 K
Reported endpoint: solubility (mole fraction)
Respond numerically, and do not add a unit to the figure.

Form: molecule = "O=C1C=CC(=O)N1c1cc(F)c(Br)c(F)c1" ; solubility (mole fraction) = 0.0318

###

# Condition parameters: in toluene, 296.35 K
Reported endpoint: solubility (mole fraction)
Lab note: jot down the number only; don't add units.

The compound listed as "O=C1C=CC(=O)N1c1cc(F)c(Br)c(F)c1" shows solubility (mole fraction) equal to 0.0037

###

# Condition parameters: in DMF, 322.95 K
Reported endpoint: solubility (mole fraction)
The answer should be written as a number, with no unit following it.

The recorded solubility (mole fraction) for "O=C1C=CC(=O)N1c1cc(F)c(Br)c(F)c1" is 0.0452

###

# Condition parameters: in 1,4-dioxane, 297.15 K
Reported endpoint: solubility (mole fraction)
Answer as a number with no unit attached.

Given item "O=C1C=CC(=O)N1c1cc(F)c(Br)c(F)c1" , the value recorded as its solubility (mole fraction) is 0.016

###

# Condition parameters: in toluene, 350.65 K
Reported endpoint: solubility (mole fraction)
Keep the answer to the number alone.

Recorded solubility (mole fraction) (compound "O=C1C=CC(=O)N1c1cc(F)c(Br)c(F)c1" ): 0.0244

###

# Condition parameters: in cyclohexanone, 355.05 K
Reported endpoint: solubility (mole fraction)
No unit in the answer, only the number.

Lookup result for "O=C1C=CC(=O)N1c1cc(F)c(Br)c(F)c1" ; measured solubility (mole fraction): 0.0823

###

# Condition parameters: in 1,4-dioxane, 353.65 K
Reported endpoint: solubility (mole fraction)
Could you respond with only the numeric value?

solubility (mole fraction) reading for "O=C1C=CC(=O)N1c1cc(F)c(Br)c(F)c1" : 0.0759

###

# Condition parameters: in DMSO, 355.95 K
Reported endpoint: solubility (mole fraction)
// print number alone

GET /value?item= "O=C1C=CC(=O)N1c1cc(F)c(Br)c(F)c1" &field=solubility (mole fraction) returns 0.0768

###

# Condition parameters: in 2-butanone, 289.75 K
Reported endpoint: solubility (mole fraction)
Give the figure by itself; no unit, no explanation.

Query "O=C1C=CC(=O)N1c1cc(F)c(Br)c(F)c1" yields solubility (mole fraction) of 0.0086

###

# Condition parameters: in 1,4-dioxane, 330.85 K
Reported endpoint: solubility (mole fraction)
Answer using only a numeral; do not append any unit.

The value of solubility (mole fraction) measured for the compound "O=C1C=CC(=O)N1c1cc(F)c(Br)c(F)c1" turned out to be 0.0408

###

# Condition parameters: in DMSO, 318.15 K
Reported endpoint: solubility (mole fraction)

GET /value?item= "O=C1C=CC(=O)N1c1cc(F)c(Br)c(F)c1" &field=solubility (mole fraction) returns 0.026

###

# Condition parameters: in DMSO, 333.65 K
Reported endpoint: solubility (mole fraction)
I only need the number, thanks.

solubility (mole fraction) measured on "O=C1C=CC(=O)N1c1cc(F)c(Br)c(F)c1" = 0.0406

###

# Condition parameters: in DMSO, 349.35 K
Reported endpoint: solubility (mole fraction)
Format: numeric value only, no unit, no commentary.

solubility (mole fraction) for "O=C1C=CC(=O)N1c1cc(F)c(Br)c(F)c1" is 0.0637

###

# Condition parameters: in cyclohexanone, 348.35 K
Reported endpoint: solubility (mole fraction)
In your answer, state the number alone without any accompanying words.

Data point: "O=C1C=CC(=O)N1c1cc(F)c(Br)c(F)c1" ; solubility (mole fraction) = 0.069

###

# Condition parameters: in 1,4-dioxane, 306.25 K
Reported endpoint: solubility (mole fraction)
// no unit, no text: just the number

Record "O=C1C=CC(=O)N1c1cc(F)c(Br)c(F)c1" . Reported solubility (mole fraction): 0.0206

###

# Condition parameters: in 1,4-dioxane, 335.35 K
Reported endpoint: solubility (mole fraction)

For this molecule ( "O=C1C=CC(=O)N1c1cc(F)c(Br)c(F)c1" ), measured solubility (mole fraction) is 0.0464

###

# Condition parameters: in cyclohexanone, 295.15 K
Reported endpoint: solubility (mole fraction)
Hey, just send me the number, nothing else.

The compound listed as "O=C1C=CC(=O)N1c1cc(F)c(Br)c(F)c1" has a reported solubility (mole fraction) of 0.0167

###

# Condition parameters: in 2-butanone, 308.75 K
Reported endpoint: solubility (mole fraction)

solubility (mole fraction) recorded for this compound, "O=C1C=CC(=O)N1c1cc(F)c(Br)c(F)c1" , is 0.0149

###

# Condition parameters: in 2-butanone, 327.05 K
Reported endpoint: solubility (mole fraction)
I only need the number, thanks.

Quick note, solubility (mole fraction) for "O=C1C=CC(=O)N1c1cc(F)c(Br)c(F)c1" landed at 0.0257

###

# Condition parameters: in 1,4-dioxane, 293.85 K
Reported endpoint: solubility (mole fraction)
The answer should be a number; do not append a unit.

So for "O=C1C=CC(=O)N1c1cc(F)c(Br)c(F)c1" , the logged solubility (mole fraction) turned out to be 0.0146

Attribution: BigSolDB 2.1
